Biological target: 17-beta-hydroxysteroid dehydrogenase type 2 (Homo sapiens) (UniProt P37059)
Sequence (whole entry): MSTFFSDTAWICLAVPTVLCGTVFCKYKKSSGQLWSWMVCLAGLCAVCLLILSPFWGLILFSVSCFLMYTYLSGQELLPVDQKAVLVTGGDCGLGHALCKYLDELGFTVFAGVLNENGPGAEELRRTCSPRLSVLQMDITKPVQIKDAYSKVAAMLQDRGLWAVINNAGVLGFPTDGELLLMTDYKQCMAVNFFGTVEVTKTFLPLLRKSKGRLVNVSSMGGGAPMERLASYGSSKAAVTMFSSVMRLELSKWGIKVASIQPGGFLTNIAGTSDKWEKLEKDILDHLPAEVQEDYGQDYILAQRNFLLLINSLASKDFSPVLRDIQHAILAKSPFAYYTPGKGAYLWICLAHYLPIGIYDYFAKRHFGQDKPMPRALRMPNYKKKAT
Experiment: Inhibition of [3H]E2 binding to human placental 17beta-HSD2 at 1 uM after 20 mins
Property Measured: inhibition (%)

Some solved cases for reference:
Oc1cccc(-c2ccc3c(O)cccc3c2)c1: 32
COc1ccc(-c2ccc3c(O)cccc3c2)cc1: 20
Oc1ccc2cc(-c3ccccc3)ccc2c1: 17
COc1cccc(C(=O)N(C)c2cccc(-c3ccc(CO)cc3)c2)c1: 15

I = Oc1cccc(-c2ccc3ccccc3c2)c1
II = Oc1cccc2cc(-c3ccncc3)ccc12
III = Oc1ccc(-c2ccc3c(O)cccc3c2)cc1
Put the items in sequence by inhibition, from largest down. Answer format: the labels, in the requested order.
III, II, I

* * *

Biological target: 17-beta-hydroxysteroid dehydrogenase type 1 (Homo sapiens)
Sequence (whole entry): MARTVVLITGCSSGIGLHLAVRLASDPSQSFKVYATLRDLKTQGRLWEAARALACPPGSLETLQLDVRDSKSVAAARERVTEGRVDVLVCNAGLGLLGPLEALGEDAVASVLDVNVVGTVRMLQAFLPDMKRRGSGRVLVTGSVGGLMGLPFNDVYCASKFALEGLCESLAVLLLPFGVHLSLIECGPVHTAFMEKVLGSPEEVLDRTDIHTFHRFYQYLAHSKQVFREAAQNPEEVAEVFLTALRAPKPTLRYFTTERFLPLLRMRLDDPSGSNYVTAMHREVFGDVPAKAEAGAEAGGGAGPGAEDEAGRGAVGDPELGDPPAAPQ
Assay: Inhibition of [3H]E1 binding to human placental 17beta-HSD1 at 1 uM after 20 mins
Property Measured: inhibition (%)

I = CC(=O)c1ccc(-c2ccc3c(O)cccc3c2)cc1
II = Oc1ccc2cc(-c3ccccc3)ccc2c1
API: POST /compare with I and II ; response names the item with higher inhibition. Give the label under which the chosen entry appears.
II

* * *

Species: Homo sapiens
Test: Selectivity ratio of IC50 for human placental 17beta-HSD1 to IC50 for human placental 17beta-HSD2
Property Measured: Ratio IC50

CS(=O)(=O)Nc1ccc(-c2ccc3c(O)cccc3c2)cc1: 1

a = Oc1cccc(-c2ccc3cc(O)ccc3c2)c1
b = Oc1ccc(-c2ccc3c(O)cccc3c2)cc1
Short answer wanted: higher Ratio IC50, a or b ? Answer by quoting the chosen item's label.
b

* * *

Target: 17-beta-hydroxysteroid dehydrogenase type 2 (Homo sapiens) (UniProt P37059)
Assay: Inhibition of [3H]E2 binding to human placental 17beta-HSD2 at 1 uM after 20 mins
Property Measured: inhibition (%)

Solved entries:
COc1ccc(-c2cccc(N(C)C(=O)c3cccc(OC)c3)c2)cc1: 13
CNC(=O)c1cccc(-c2ccc3c(O)cccc3c2)c1: 43
CNC(=O)c1ccc(-c2ccc3c(O)cccc3c2)cc1: 13
CC(=O)Nc1cccc(-c2ccc3c(O)cccc3c2)c1: 64
COc1ccc(CC(=O)N(C)c2cccc(-c3ccc(OC)cc3)c2)cc1: 10

1 = COc1ccc(C(=O)N(C)c2cccc(-c3ccc(OC)cc3)c2)cc1
2 = CS(=O)(=O)Nc1ccc(-c2ccc3c(O)cccc3c2)cc1
3 = OCc1ccc(-c2ccc3c(O)cccc3c2)cc1
4 = N#Cc1ccc(-c2ccc3c(O)cccc3c2)cc1
Sort these molecules on inhibition so the largest reading comes first. Arrange the labels as the request states and list them.
2, 3, 1, 4
(2: 75%, 3: 31%, 1: 20%, 4: 12%)
